experiment: chemical genetic growth profiling, strain panel (AID 1159580);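 also: tested at 20 µM; growth read once vehicle control cultures reached saturation at 30 °C; 1 = growth at the plate median or of vehicle wells; lower values mean less growth of the strain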; conditions: S. cerevisiae deletion strains, growth OD, locus YOR144C, strain elg1, active compounds read low
Out of some 5,500 compounds screened, about 2,000 (36%) were called active. About 18% were inconclusive and are not listed. Some of the results follow.
Items are presented alongside their recorded normalized growth.
QUANTITY KIND: normalized growth

INSERT INTO measurements (molecule, quantity_kind, quantitative_readout) VALUES
  ('COC(=O)CC1C2(C)CC34OC5(C)OC6(C7/C(=C(/O)C(C)C)C(=O)OC(c8ccoc8)C7(C)C(OC(=O)C(C)C)C(OC)C6(O5)C13C)C(OC)C4(OC)C2OC(C)=O (configuration not stated)', 'normalized growth', 0.989),
  ('COC(=O)C[C@H]1C2(C)CC34OC5(C)O[C@@]6([C@H](OC)C(OC(=O)C(C)C)[C@]7(C)C(/C(=C(/OC)C(C)C)C(=O)O[C@H]7c7ccoc7)[C@@]6(O5)[C@H](OC)[C@@]3(OC)C2OC(C)=O)[C@]14C (some centres not stated)', 'normalized growth', 1.01),
  ('COc1cc2c(cc1OC)C(=O)c1ccc(OC)c(OC)c1OCC(=O)C2', 'normalized growth', 1),
  ('NCCCS(=O)(=O)O', 'normalized growth', 0.998),
  ('CCCCCCC(C)OC(=O)COc1cc(Cl)c(Cl)cc1Cl (configuration not stated)', 'normalized growth', 0.986),
  ('COc1ccc2c(c1)OC/C(=C/c1ccc(OC)c(OC)c1)C2=O', 'normalized growth', 0.976),
  ('NC(=O)c1ccc[n+]([C@@H]2O[C@H](COP(=O)([O-])OP(=O)(O)OC[C@H]3O[C@@H](n4cnc5c(N)ncnc54)[C@H](OP(=O)(O)O)[C@@H]3O)[C@@H](O)[C@H]2O)c1', 'normalized growth', 0.984),
  ('CCC(C)C(=O)O[C@@H]1C[C@@]2(C)[C@H](c3ccoc3)OC(=O)CC23OC2(C)O[C@]14[C@]1(C)[C@@H](CC(=O)OC)C5(C)CC1(O)[C@](O)(C5OC(=O)C1(C)OC1C)[C@@H](OC(C)=O)[C@]34O2 (some centres not stated)', 'normalized growth', 1.02),
  ('CC1(C)CCC[C@@]2(C)C1[C@@H](O)C[C@]1(C)C2CC[C@@H]2[C@@]3(C)CC[C@H](C(C)(C)O)[C@@H]3CC[C@@]21C (some centres not stated)', 'normalized growth', 0.997),
  ('COC(=O)C[C@H]1C2(C)CC34OC5(C)O[C@@]6([C@H](OC(C)=O)C(OC(C)=O)[C@]7(C)C(/C(=C(/O)C(C)C)C(=O)O[C@H]7c7ccoc7)[C@@]6(O5)[C@H](OC(C)=O)[C@@]3(O)C2OC(=O)C(C)C)[C@]14C (some centres not stated)', 'normalized growth', 1),
  ('CCC(C)C(=O)OC1CC2(C)C(c3ccoc3)OC(=O)CC23OC2(C)OC34C(OC(=O)C(C)C)C3(O)C(OC(=O)C5(C)OC5C)C5(C)CC3(O)C(C)(C5C(=O)OC)C14O2 (configuration not stated)', 'normalized growth', 1.01),
  ('C=C[C@@](C)(O)CCC1C(=C)C[C@H](O)C2C(C)(C)CCCC12C (some centres not stated)', 'normalized growth', 1.02);
